- Tested on: Liver microsomes
- TEST: Oxidative metabolism in rat liver microsomes assessed as compound remaining; note: time not given here
- Assay type: ADME, Microsome
READOUT NAME: Stability (%)

Challenge: Report measured Stability; entry is C[C@@H]1c2c[nH]nc2-c2cc(F)c(F)cc2N1S(=O)(=O)c1ccc(C(F)(F)F)cc1
Response given: 36

Challenge: State, in one line, measured Stability of C[C@@H]1c2c[nH]nc2-c2cc(F)ccc2N1S(=O)(=O)c1ccc(Cl)cc1
Response given: 2

Challenge: Dear colleague, please send me the reported Stability for O=S(=O)(c1ccc(F)cc1)N1c2cc(F)c(F)cc2-c2n[nH]cc2[C@H]1C1CC1 when you can.
Response given: 51

A. O=S(=O)(c1ccc(C(F)(F)F)cc1)N1c2ccccc2-c2n[nH]cc2[C@H]1C1CC1
B. C[C@@H]1c2c[nH]nc2-c2cc(F)ccc2N1S(=O)(=O)c1ccc(F)cc1
Challenge: Between A and B , whose measured Stability reads higher? # reply format: chosen label
Response given: A
(A: 40%, B: 21%)

Numbers sourced from ChEMBL document CHEMBL2396560.
